# Assay summary: Tissue-blood distribution coefficients and volume of distribution
# Condition label: whole blood, pH 7.5, Estimated volume of distribution Vd, residues in muscle, liver and blood only; exposed fish #4

| Compound | Vd at 7 d, L/kg |
| --- | --- |
| CCCCCCCCCCCCCN [P13, tridecylamine] | 1.33 |
| CCCCCCCCCN [P9, Nonylamine] | 1.6 |
| CCCCCCCCCCCCN [P12, Dodecylamine] | 1.87 |
| CCCCCCCCCCCCCCCCN [P16, hexadecylamine] | 1.63 |

* * *

# key: entry, value: concentration at 7 d
# Assay summary: Tissue concentrations in rainbow trout after 7 d exposure via water (two mixtures)
# Assay type: in vivo, Oncorhynchus mykiss
# Condition label: rainbow trout (Oncorhynchus mykiss), in vivo, pH 7.5, Concentration in blood
Endpoint label: concentration at 7 d (ng/g)

| Molecule | Unit abbrev | Assay value |
| --- | --- | --- |
| CCCCCCCCCCCCCN [P13, tridecylamine] | ng/g | 495 |
| CCCCCCCCCCCCN [P12, Dodecylamine] | ng/g | 558 |
| CCCCCCCCCCCCCCCCN [P16, hexadecylamine] | ng/g | 119 |
